molecular target: human MET kinase Y1230S (Homo sapiens, UniProt P08581, Y1230S); construct: GST-tagged recombinant human MET kinase domain; assay: c-Met Enzyme Assay, Y1230S mutant; settings: averaged IC50; Y1230S 8 nM; 60-minute incubation at 22° C.; read-out: Y1230 S IC50
Sequence (P08581 1078-1345 Y1230S): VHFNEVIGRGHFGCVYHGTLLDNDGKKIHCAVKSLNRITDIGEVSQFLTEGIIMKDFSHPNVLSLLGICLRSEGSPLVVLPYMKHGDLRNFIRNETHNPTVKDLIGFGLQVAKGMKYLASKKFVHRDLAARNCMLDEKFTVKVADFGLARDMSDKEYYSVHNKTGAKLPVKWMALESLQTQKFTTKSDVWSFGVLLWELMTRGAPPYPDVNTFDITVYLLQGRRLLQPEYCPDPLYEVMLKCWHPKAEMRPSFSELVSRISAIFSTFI
MEASURE_NAME: IC50 (nM)
# output: bare number, implied unit nM

// solved cases for IC50 follow
>>> value_reported("COc1cc2nccc(Oc3ccc(NC(=O)c4cn(CC(=O)N5CCOCC5)cc(-c5ccc(F)cc5F)c4=O)nc3)c2cc1OC")
53.3
>>> value_reported("COc1cc2nccc(Oc3ccc(NC(=O)c4cn(CCC(C)C)cc(-c5ccc(F)c(F)c5)c4=O)nc3)c2cc1OC")
8.5
>>> value_reported("COc1cc(-c2cn(C(C)C)cc(C(=O)Nc3ccc(Oc4ccnc5cc(OC)c(OC)cc45)cn3)c2=O)ccc1F")
6.2

# evaluate next
Given the entry `COc1cc2nccc(Oc3ccc(NC(=O)c4cn(CCC(C)C)cc(-c5ccc(F)cc5F)c4=O)nc3)c2cc1OC` , report its measured IC50.
2.3
